Data provenance: patent US20060063736A1

- Experimental target: rppGalNAcT-5 (Rattus norvegicus)
- Construct: plasmids encoding truncated secreted ppGalNAcTs-1 to −5, -7, -10 and -11; FLAG
- Sequence (O88422 36-930 limits assumed): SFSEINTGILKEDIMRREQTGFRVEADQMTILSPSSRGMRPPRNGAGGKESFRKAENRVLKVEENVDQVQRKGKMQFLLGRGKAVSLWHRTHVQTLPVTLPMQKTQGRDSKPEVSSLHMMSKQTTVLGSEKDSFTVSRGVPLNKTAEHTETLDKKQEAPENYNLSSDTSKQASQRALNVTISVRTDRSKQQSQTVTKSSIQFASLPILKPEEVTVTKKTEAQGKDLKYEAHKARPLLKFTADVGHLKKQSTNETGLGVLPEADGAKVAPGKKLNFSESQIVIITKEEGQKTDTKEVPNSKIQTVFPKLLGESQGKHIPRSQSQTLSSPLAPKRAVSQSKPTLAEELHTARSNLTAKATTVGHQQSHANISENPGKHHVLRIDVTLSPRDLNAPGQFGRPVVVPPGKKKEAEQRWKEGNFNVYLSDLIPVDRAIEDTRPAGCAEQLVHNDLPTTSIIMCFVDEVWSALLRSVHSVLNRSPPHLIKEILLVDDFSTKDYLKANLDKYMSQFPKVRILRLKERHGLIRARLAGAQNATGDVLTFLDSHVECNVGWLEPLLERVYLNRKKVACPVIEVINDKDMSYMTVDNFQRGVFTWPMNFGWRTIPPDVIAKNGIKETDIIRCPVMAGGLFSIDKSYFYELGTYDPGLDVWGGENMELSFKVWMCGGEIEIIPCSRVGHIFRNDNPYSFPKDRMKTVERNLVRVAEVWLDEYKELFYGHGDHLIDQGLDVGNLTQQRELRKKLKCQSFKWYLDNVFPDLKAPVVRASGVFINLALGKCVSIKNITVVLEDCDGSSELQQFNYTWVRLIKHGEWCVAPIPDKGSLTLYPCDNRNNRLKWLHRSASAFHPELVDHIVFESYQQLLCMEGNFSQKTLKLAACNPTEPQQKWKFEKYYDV
- Assay procedure: Radiolabel capture assay, rppGalNAcT-5
- Condition context: α-FLAG purified enzyme
Test readout: IC50 (µM)
Write the answer as a number in µM, unit excluded.

If you can, please state the reported IC50 value of O=C(CON=Cc1ccc(O)c(O)c1O)NC[C@H]1O[C@@H](n2ccc(=O)[nH]c2=O)[C@H](O)[C@@H]1O [2-68A] . 26

Name the recorded IC50 for O=c1ccn([C@@H]2O[C@H](CON=Cc3ccc(O)c(O)c3O)[C@@H](O)[C@H]2O)c(=O)[nH]1 [1-68A] . 20
